# System: A2780 ovarian cancer cells
# methodSummary: Molecular screening of compounds on A2780 cell proliferation (resazurin fluorescence)
# Type: cell-based, human
# experimentalParameters: Homo sapiens; A2780 cells cultured 3 days (72 hrs); from normalized percent inhibition; N/A = ambiguous curve fits or EC50 greater than highest concentration tested (25 μM)
readoutKind: pEC50
Reminder that pEC50 means the negative base-10 logarithm of the concentration expressed in mol/L.

Look up pEC50 with A2780 ovarian cancer cells for this compound: "Cn1c(=O)n(-c2ccc(C(C)(C)C#N)cc2)c2c3cc(-c4cnc5ccccc5c4)ccc3ncc21"
7.68

Lab note: need pEC50 for "N#CC(=C(/N)Sc1ccccc1N)/C(C#N)=C(\N)Sc1ccccc1N" on A2780 ovarian cancer cells, anyone have it?
4.90

###

# System: human T cells
# methodSummary: ConA-induced activation and expansion of human T cells (high-throughput screen)
# Type: cell-based
# experimentalParameters: Homo sapiens, T-cell, 168 h, read-out: EC50-T cells
readoutKind: EC50

// query EC50 value for entry "N#CC(=C(/N)Sc1ccccc1N)/C(C#N)=C(\N)Sc1ccccc1N"
1920 nM

Data provenance: patent US10258625B2
